Here the recorded apparent KD of MS2 coat protein is given for each entry.
- Tested on: MS2 coat protein
- experiment.summary: apparent KD of MS2 coat protein; higher = weaker reporter binding
- cond: Eterna round: R107; input ligand: theophylline 2 mM
State just the number; it will be interpreted in nM.

CACAUGAGGAUCACCCAUGUCUGAACUGAAGGAGCGCUAAACAAGGCAGGUAGGUCGCGGAAUUUUGUGUGCAUAUGCAUAUGGG [9.N] = 26.9
AAAAUCCUACCUGAGGAUCACCCGGGUGAAGGAGCGCCCGAAAGGGCAGGUAGGUCGCACCUGAGGAUCACCCUGGUAACCUAAA [ArgEX 12 #DoubleMS2 #OpenEnded #AlternativeMS2] = 454

Could you now look at the following sequence, please?
Any idea what apparent KD of MS2 coat protein was measured for ACUAGUUGUGCAGAUACCAGAUAUGAGGAUCACCCAUAUUUGGGAUGUUCGCAUCUUCCUGUCCCUUGGCAGCUGUACAUCUAGA [Omei Theo B Exc v7] ?
107

From: the supplement of paper PMC9170038
